// provenance: patent US6693137B1

# reported melting point; entries follow

Known results for compounds:
>>> reported("CC(CNS(=O)(=O)C(C)C)c1ccc(-c2ccc(OCCN3CCCC3)cc2)cc1.Cl (centres unmarked)")
"172 to 173 °C"
>>> reported("CC(CNS(=O)(=O)C(C)C)c1ccc(NC(=O)CN(C)C)cc1.O=C(O)/C=C\\C(=O)O (centres unmarked)")
"120 to 122 °C"
>>> reported("CC(CNS(=O)(=O)C(C)C)c1ccc(NC(=O)CN2CCCCC2)cc1 (centres unmarked)")
"139 to 141 °C"

Asked: Which melting point is reported for this compound? CCOCC(=O)Nc1ccc(C(C)CNS(=O)(=O)C(C)C)cc1 (centres unmarked)
Given back: 113 to 116 °C

Asked: Which melting point is reported for this compound? CC(CNS(=O)(=O)C(C)C)c1ccc(NC(=O)COc2ccccn2)cc1 (centres unmarked)
Given back: 176 to 178 °C
